Data provenance is the OligoGym collection.

remaining target (mRNA or protein) (fraction of control) by entry:
Biological target: ICAM1
Conditions: ASO; note: test concentration or dose not given here
These antisense oligonucleotides have a phosphorothioate backbone; sugars and methylation of C are not fully specified.
assay-endpoint: remaining target (mRNA or protein) (fraction of control)

{"polymer-sequence": "CCATAGCGAGGC", "relational-operator": "≥", "experimental-value": 1}
{"polymer-sequence": "AGCCATAGCGAGGC", "relational-operator": "=", "experimental-value": 0.64}
{"polymer-sequence": "GCGTCGACTGGGGCGCGTGAT", "relational-operator": "=", "experimental-value": 0.95}
{"polymer-sequence": "TTGAGAAAGCTTTATTAACT", "relational-operator": "≥", "experimental-value": 1}
{"polymer-sequence": "GGTTGCAACTCTGAG", "relational-operator": "=", "experimental-value": 0.36}
{"polymer-sequence": "TTGGGACAATGTCTCAGCTT", "relational-operator": "=", "experimental-value": 0.25}

---

Target: SRA1
Conditions: ASO
These antisense oligonucleotides have a phosphorothioate backbone; sugars and methylation of C are not fully specified.
Lab note - cut at 0.6 for remaining target (mRNA or protein) (fraction of control): yes (1) if strictly below, no (0) if not.

{"polymer-sequence": "AGCGGTGGATGTCATCTG", "label-value": "no (0)"}
{"polymer-sequence": "CCCCACTCAATGTGGTTC", "label-value": "yes (1)"}
{"polymer-sequence": "GGAACCGAGGATTATGAA", "label-value": "no (0)"}
{"polymer-sequence": "TGGCCACGGCAGTCTTCC", "label-value": "yes (1)"}
{"polymer-sequence": "TGCTGGAAGCCTGGTATG", "label-value": "yes (1)"}
{"polymer-sequence": "AAAACAGACTCCTCTTTT", "label-value": "yes (1)"}
{"polymer-sequence": "TGACAACTTTCCTCCAGC", "label-value": "yes (1)"}
{"polymer-sequence": "TTGGCTGCCTCCTCTGAA", "label-value": "yes (1)"}
{"polymer-sequence": "CTGCTGCGTCCCACCGGT", "label-value": "yes (1)"}
{"polymer-sequence": "GACCACTCCCCACAGGTG", "label-value": "no (0)"}
{"polymer-sequence": "TCTGCTGCGTCCCACCGG", "label-value": "yes (1)"}
{"polymer-sequence": "GCCAGAGGCAGGACCACT", "label-value": "no (0)"}
{"polymer-sequence": "AACTGCGGCGGGTCGTTC", "label-value": "no (0)"}
{"polymer-sequence": "TTCCAGCCGCGTTCCTTG", "label-value": "no (0)"}
{"polymer-sequence": "CCCGGCTTCACGTACAGC", "label-value": "no (0)"}
{"polymer-sequence": "TTTTAACTCCTACCATCC", "label-value": "no (0)"}
{"polymer-sequence": "ATGCATGTTATGAGTAAC", "label-value": "no (0)"}
{"polymer-sequence": "TCTGAAAACAGACTCCTC", "label-value": "no (0)"}
{"polymer-sequence": "GCTTGAAAGCTCTTGCAC", "label-value": "no (0)"}
{"polymer-sequence": "ACCTGCTTCCTTGTGTGG", "label-value": "yes (1)"}
{"polymer-sequence": "GCCAGGCGTCGGCTGATG", "label-value": "yes (1)"}
{"polymer-sequence": "CAATGCCTGTTCCAAAGG", "label-value": "no (0)"}
{"polymer-sequence": "GTCTGCAGCCCGTATGAG", "label-value": "no (0)"}
{"polymer-sequence": "TGAAAGCTCTTGCACCAG", "label-value": "no (0)"}
{"polymer-sequence": "TTCTCATGCTGAAATGAA", "label-value": "no (0)"}
{"polymer-sequence": "CTCGACTGGGAAACTTGT", "label-value": "no (0)"}
{"polymer-sequence": "CAGAGGTTTGCAGATACA", "label-value": "yes (1)"}
{"polymer-sequence": "GGAGCCAAGTGACAGAAG", "label-value": "no (0)"}
{"polymer-sequence": "CCTCTGAAAACAGACTCC", "label-value": "no (0)"}
{"polymer-sequence": "TCACATGGTCAACCATGA", "label-value": "no (0)"}
{"polymer-sequence": "TGTCATCACATACCTGCT", "label-value": "no (0)"}
{"polymer-sequence": "GTGGATGTCATCTGCTGC", "label-value": "no (0)"}
{"polymer-sequence": "CGAGCGCCTGGGTCCGCC", "label-value": "yes (1)"}
{"polymer-sequence": "CCTTGTGTGGCCACGGCA", "label-value": "yes (1)"}
{"polymer-sequence": "TGACAGAAGGTCTCCAAG", "label-value": "no (0)"}
{"polymer-sequence": "CCAGTAGAGCCATTCTCT", "label-value": "no (0)"}
{"polymer-sequence": "GCTCCGCCCAGCACAGGA", "label-value": "yes (1)"}
{"polymer-sequence": "CTCCAGCCCACTGTTCCT", "label-value": "no (0)"}
{"polymer-sequence": "TGTTCCTGCAGCAGTGCC", "label-value": "yes (1)"}
{"polymer-sequence": "CCTGCTTCCTTGTGTGGC", "label-value": "no (0)"}
{"polymer-sequence": "GCTCCACGCCAGAGGCAG", "label-value": "yes (1)"}
{"polymer-sequence": "GGTGGTGGTAAGAAGGGA", "label-value": "no (0)"}
{"polymer-sequence": "TGGTATGGTTCTTCTCAG", "label-value": "yes (1)"}
{"polymer-sequence": "ACCACTCCCCACAGGTGG", "label-value": "no (0)"}
{"polymer-sequence": "GAGGGTCCATACTAAGCG", "label-value": "yes (1)"}
{"polymer-sequence": "ACTGGGAAACTTGTGGGC", "label-value": "no (0)"}
{"polymer-sequence": "CTTTCCTTTTGTTGAGGG", "label-value": "no (0)"}
{"polymer-sequence": "TTTCACCGCAGAGATGTT", "label-value": "no (0)"}
{"polymer-sequence": "CAGTGCCAGGCGTCGGCT", "label-value": "no (0)"}
{"polymer-sequence": "GGAGCCTTACTTGAAGGA", "label-value": "yes (1)"}
{"polymer-sequence": "TTTACAGGTATTGACAAC", "label-value": "no (0)"}
{"polymer-sequence": "TCAGCACATCCTCCATCA", "label-value": "no (0)"}
{"polymer-sequence": "GTAGGCAGTAGTCTGACT", "label-value": "yes (1)"}
{"polymer-sequence": "CCAGCCGCGTTCCTTGTT", "label-value": "no (0)"}
{"polymer-sequence": "AGTCGAGCCTCAGACTCG", "label-value": "no (0)"}
{"polymer-sequence": "GGTGTCCGGTGAGTCTGG", "label-value": "yes (1)"}
{"polymer-sequence": "CAACTTTCCTCCAGCCCA", "label-value": "yes (1)"}
{"polymer-sequence": "CGTATGAGAACTGCGGCG", "label-value": "no (0)"}
{"polymer-sequence": "TTTCTCTTCATTGGCTGC", "label-value": "yes (1)"}
{"polymer-sequence": "GGATGCTTGTTCAGTCTA", "label-value": "no (0)"}
{"polymer-sequence": "CCGCGTTCCTTGTTGCCG", "label-value": "no (0)"}
{"polymer-sequence": "GAGGCCCAGGAGAAGTCT", "label-value": "no (0)"}
{"polymer-sequence": "CTCCTACCATCCACTGAC", "label-value": "yes (1)"}
{"polymer-sequence": "TGAAGGAGGTGGAGGCCC", "label-value": "no (0)"}
{"polymer-sequence": "CATCCAAACACAGCTGCT", "label-value": "yes (1)"}

---

Target: PTPN11
Conditions: ASO
These antisense oligonucleotides have a phosphorothioate backbone; sugars and methylation of C are not fully specified.
remaining target (mRNA or protein) (fraction of control) by entry:
assay-endpoint: remaining target (mRNA or protein) (fraction of control)

{"polymer-sequence": "TTGCATTGATGTAATCTGAA", "experimental-value": 0.98}
{"polymer-sequence": "ATGCTCTCCTGCTTATGGTG", "experimental-value": 0.37}
{"polymer-sequence": "CCCTTGTCCAACCTTTGAAA", "experimental-value": 0.25}
{"polymer-sequence": "CACGTTTTCATAGACTCTAG", "experimental-value": 0.71}
{"polymer-sequence": "TCCGCGATGTCATGTTCCTC", "experimental-value": 0.26}
{"polymer-sequence": "TCCACTCGTCTGGTCCGCTA", "experimental-value": 0.29}
{"polymer-sequence": "TTTAGACTTGCCGTCATTGC", "experimental-value": 0.32}
{"polymer-sequence": "GGCCCGCTCGGGACCGGACG", "experimental-value": 0.75}
{"polymer-sequence": "ACGGACCCGCTCCTTGCTCA", "experimental-value": 0.48}
{"polymer-sequence": "TCATCTGAAACTTTTCTGCT", "experimental-value": 0.84}
{"polymer-sequence": "TACAAGAAAACTACCATGTT", "experimental-value": "≥ 1"}
{"polymer-sequence": "AAAGAATCAAACCGTTCTCC", "experimental-value": 0.58}
{"polymer-sequence": "CGCGATGTCATGTTCCTCCC", "experimental-value": 0.45}
{"polymer-sequence": "CTGTGGTCTCAGCTAATTTG", "experimental-value": 0.35}
{"polymer-sequence": "AGAGCATACTCATCAGGCCA", "experimental-value": 0.2}
{"polymer-sequence": "TCCACCATAGGATTCTTCTT", "experimental-value": 0.43}
